assayComment: NCI Yeast Anticancer Drug Screen. Data for the mlh1 rad18 strain (AID 175)
runParameters: S. cerevisiae mlh1 rad18 strain growth inhibition; at 50.0 µM; hits give high values
About 79,000 compounds went through this panel and 15% of them were active in at least one assay; those are over-represented in the sample as a whole.
// reported growth inhibition for each item listed
// return numeric value only (unit: %, not printed)

# annotated cases, reported growth inhibition shown
Cc1ccc(C2=CSC3=NCCN23)cc1Cl :: 23.4
O=C(/C=C(/CC(O)(c1ccccc1)c1ccccc1)Nc1ccccc1)c1ccccc1 :: -2.1
C/C(N=NC(=S)N(C)C)=C1\C=CC=CN1O :: 38.9
CC1(C)OC2COC(CNCC3OCC4OC(C)(C)OC34)C2O1 (stereo not drawn) :: 4.55
CN1CCCC1c1cccnc1.O=C(O)c1ccccc1O.O=C([O-])c1ccccc1[OH2+].O=C([O-])c1ccccc1[OH2+].O=C([O-])c1ccccc1[OH2+].[Mn+2] (stereo not drawn) :: 7.3

Per the record, `O=P(O)(c1cc(Cl)cc(Cl)c1)c1cc(Cl)cc(Cl)c1` has growth inhibition of -4.5

Per the record, `O=C(C[n+]1cc(Br)cc(Br)c1)c1ccc(Br)cc1` has growth inhibition of 37.9

Per the record, CCCC(O)CN (stereo not drawn) has growth inhibition of 24.9

====

// reported growth inhibition for each item listed
assayComment: NCI Yeast Anticancer Drug Screen. Data for the sgs1 mgt1 strain (AID 161);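 note: 0% = growth of cultures given vehicle only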
runParameters: S. cerevisiae sgs1 mgt1 strain, at 50.0 µM, hits give high values
About 79,000 compounds went through this panel and 15% of them were active in at least one assay; those are over-represented in the sample as a whole.
// return numeric value only (unit: %, not printed)

CC(=O)OCC1OC2OC(C)(C)OC2C1NC(=O)C(F)(F)F (stereo not drawn) :: -8.15

Per the record, `CC(C)c1nnnn1C12CC3CC(CC(C3)C1)C2` has growth inhibition of 1

Per the record, CC(=O)OC[C@]1(C)CCCC2(C)C1CCC1C=C(C)[C@H]3CCC12C3 (stereo partly drawn) has growth inhibition of -17.8

Per the record, `Cc1c(Cl)cccc1NC(=O)Nc1ccccc1F` has growth inhibition of 15.2

Per the record, `CCCCOc1ccc2c(c1)CC[C@@H]1[C@@H]2CC[C@]2(C)C(=O)N(CCCC)C(=O)C[C@@H]12` has growth inhibition of 16.4

Per the record, O=C1NC(Cc2cccc(I)c2)C(=O)N1c1ccccc1 (stereo not drawn) has growth inhibition of 31.9

Per the record, `N#Cc1c(C#N)c(-c2cccc([N+](=O)[O-])c2)n(-c2ccccc2)c1N` has growth inhibition of -35.6

Per the record, CCC(C(C)O)[N+](=O)[O-] (stereo not drawn) has growth inhibition of 10

Per the record, `CC(C)(C)NC(=O)NCCCl` has growth inhibition of -2.45

Per the record, `CC(=N/O)/C(C)=C/c1ccccc1` has growth inhibition of 1.4

Per the record, `O=S(=O)([O-])c1ccc(N=Cc2ccccc2[O-])cc1.O=S(=O)([O-])c1ccc(N=Cc2ccccc2[O-])cc1.[Co+2]` has growth inhibition of -15.2

====

// reported growth inhibition for each item listed
assayComment: NCI Yeast Anticancer Drug Screen. Data for the mec2-1 strain (AID 157)
runParameters: S. cerevisiae mec2-1 strain, at 50.0 µM, hits give high values
Compounds without any hit were thinned out: in the full panel of roughly 79,000, 15% have a hit.
// return numeric value only (unit: %, not printed)

# annotated cases, reported growth inhibition shown
C/C(=C/c1ccccc1)C(F)F :: -5.7
CC(C)NCCO :: -3
Cc1nc(N)nc(CCC(=O)Nc2cccc(C(F)(F)F)c2)c1-c1ccc(Cl)cc1 :: -2.9
CC(=O)Nc1cc2c(cc1Cl)-c1cc(Cl)c(Cl)cc1C2=O :: -2.55
O=C1c2c(/C=C/c3ccc(Cl)c(Cl)c3)nc3ccccc3c2C(=O)N1CCN1CCCCC1 :: 50.6
CCC(c1ccc(O)cc1)c1cc2c(cc1OCCO)OCO2 (stereo not given) :: -9.25
Cc1ccc(S(=O)(=O)c2ccc(C(=O)O)cc2)cc1 :: 10.4
COC(=O)C(CC(=O)Nc1ccc(C)cc1)C(=O)C(=O)Nc1c(C(C)C)cccc1C(C)C (stereo not given) :: -17.8

Per the record, Cc1nn(C(=O)Cc2ccccc2)c2c1C(c1ccc([N+](=O)[O-])cc1)SC(N)=N2 (stereo not given) has growth inhibition of 9.9

Per the record, `O=[N+]([O-])c1ccc2c(c1)nc(-c1ccccn1)n2CCc1ccncc1` has growth inhibition of 98.7

Per the record, CCOC(=O)C12CCCCC1=CC1(CC2)SCCS1 (stereo not given) has growth inhibition of -9.95

Per the record, `N[C@@H]1c2c(Br)sc(Br)c2C(=O)[C@H]1Br` has growth inhibition of -2.85

Per the record, `CC(=O)Nc1ncc(Br)s1` has growth inhibition of 6.05

Per the record, COC(=O)C1CC(OC(C)=O)C2OC(C)(C)OC2C1OC(C)=O (stereo not given) has growth inhibition of 1.55

Per the record, `Cc1cc(S(=O)(=O)Nc2n[nH]c(Nc3ccccc3)n2)c(SCC(=O)O)cc1Cl` has growth inhibition of 52.8

Per the record, `CCCCCCCCCCCCCCSc1ccc2ccccc2c1` has growth inhibition of 9.3
